This collection of values is drawn from patent US20240316047A1.

# assayedTarget: Human recombinant DHX9 protein (Homo sapiens (Human))
# testDescription: DHX9 ATPase assay (ADP-Glo)
# Format: biochemical
# experimentalSetup: read-out: DHX9 Biochemical Inflection Point
Mark true (1) only for IC50 values smaller than 0.07 µM; exact matches and larger values are false (0).

Problem: Is 0.07 µM strictly greater than the compound's reported IC50? compound: `Cc1cccnc1-c1csc(C(=O)Nc2cc(Cl)cc(N(C)S(C)(=O)=O)c2)c1`
Result: false (0)

Problem: Is 0.07 µM strictly greater than the compound's reported IC50? compound: Cc1sc(C(=O)Nc2cc(Cl)cc(NS(C)(=O)=O)c2)cc1-c1ncc(OC(C)CO)cn1 (stereo not shown)
Result: true (1)

Problem: Is 0.07 µM strictly greater than the compound's reported IC50? compound: `Cc1cc(N2CC(F)(F)C2)cnc1-c1cc(C(=O)Nc2cc(Cl)cc(NS(C)(=O)=O)c2)cn1C`
Result: true (1)

Problem: Is 0.07 µM strictly greater than the compound's reported IC50? compound: `CP(C)(=O)c1cccnc1-n1cc(C(=O)Nc2cc(Cl)cc(NS(C)(=O)=O)c2)cn1`
Result: false (0)

Problem: Is 0.07 µM strictly greater than the compound's reported IC50? compound: `CS(=O)(=O)Nc1cc(Cl)cc(NC(=O)c2cc(-c3ccc(N4CC5(COC5)C4)cn3)n(CC(F)(F)F)c2)c1`
Result: true (1)

Problem: Is 0.07 µM strictly greater than the compound's reported IC50? compound: `CCS(=O)(=O)Nc1cc(Cl)cc(NC(=O)c2cc(-c3ncccc3C)cs2)c1`
Result: true (1)

###

The molecules listed here are annotated with their IC50.
# assayedTarget: Human recombinant DHX9 protein (Homo sapiens (Human), UniProt Q08211)
# Sequence (Q08211 whole entry): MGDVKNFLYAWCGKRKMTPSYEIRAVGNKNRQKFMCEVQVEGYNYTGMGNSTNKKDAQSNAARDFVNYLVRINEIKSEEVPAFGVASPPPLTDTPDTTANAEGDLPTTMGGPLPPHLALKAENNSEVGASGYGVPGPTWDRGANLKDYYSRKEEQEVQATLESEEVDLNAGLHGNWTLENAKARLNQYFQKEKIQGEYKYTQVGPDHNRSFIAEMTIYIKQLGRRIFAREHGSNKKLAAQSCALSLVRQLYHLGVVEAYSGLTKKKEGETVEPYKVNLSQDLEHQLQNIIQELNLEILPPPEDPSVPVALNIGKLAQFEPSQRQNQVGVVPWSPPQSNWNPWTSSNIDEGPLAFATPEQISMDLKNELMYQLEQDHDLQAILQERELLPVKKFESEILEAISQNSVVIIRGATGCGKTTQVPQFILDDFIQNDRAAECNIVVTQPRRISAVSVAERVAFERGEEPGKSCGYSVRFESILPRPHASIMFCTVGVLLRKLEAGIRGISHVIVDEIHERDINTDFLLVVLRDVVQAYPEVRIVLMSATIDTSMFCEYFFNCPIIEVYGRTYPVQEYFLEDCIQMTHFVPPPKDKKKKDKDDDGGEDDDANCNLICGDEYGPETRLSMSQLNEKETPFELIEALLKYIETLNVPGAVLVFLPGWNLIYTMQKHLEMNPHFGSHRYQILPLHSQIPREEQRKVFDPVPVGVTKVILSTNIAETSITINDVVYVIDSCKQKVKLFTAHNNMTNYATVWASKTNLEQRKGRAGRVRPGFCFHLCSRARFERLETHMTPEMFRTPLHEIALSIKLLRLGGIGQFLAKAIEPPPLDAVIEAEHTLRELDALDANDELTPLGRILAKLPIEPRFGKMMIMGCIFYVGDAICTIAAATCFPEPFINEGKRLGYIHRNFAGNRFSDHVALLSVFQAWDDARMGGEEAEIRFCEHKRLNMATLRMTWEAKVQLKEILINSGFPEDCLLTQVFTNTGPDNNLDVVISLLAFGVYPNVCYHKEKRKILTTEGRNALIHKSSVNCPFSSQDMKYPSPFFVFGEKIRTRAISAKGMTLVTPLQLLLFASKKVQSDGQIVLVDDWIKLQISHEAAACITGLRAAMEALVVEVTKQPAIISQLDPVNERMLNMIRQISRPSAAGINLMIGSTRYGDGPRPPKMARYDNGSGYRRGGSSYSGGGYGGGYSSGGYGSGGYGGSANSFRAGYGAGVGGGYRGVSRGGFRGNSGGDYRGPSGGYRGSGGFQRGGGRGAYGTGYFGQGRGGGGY
# testDescription: DHX9 ATPase assay (ADP-Glo)
# experimentalSetup: read-out: DHX9 Biochemical Inflection Point
Number only, in nM; omit the unit.

>  <molecule>
Cc1cccn2cc(C(=O)Nc3cc(Cl)cc(NS(C)(=O)=O)c3)cc12 [Example 329]

>  <assayedTarget>
Human recombinant DHX9 protein (Homo sapiens (Human), UniProt Q08211)

>  <IC50 [nM]>
139

$$$$
>  <molecule>
COc1cc(N2CC(F)(F)C2)cnc1-c1cc(C(=O)Nc2cc(Cl)cc(NS(C)(=O)=O)c2)cn1C [Example 462]

>  <assayedTarget>
Human recombinant DHX9 protein (Homo sapiens (Human), UniProt Q08211)

>  <IC50 [nM]>
9.1

$$$$
>  <molecule>
CS(=O)(=O)Nc1cc(Br)cc(NC(=O)c2cc(-c3cccnc3)cs2)c1 [Example 78]

>  <assayedTarget>
Human recombinant DHX9 protein (Homo sapiens (Human), UniProt Q08211)

>  <IC50 [nM]>
31.9

$$$$
>  <molecule>
COc1cnc(-c2cc(C(=O)Nc3cc(Cl)cc(NS(C)(=O)=O)c3)cn2C)c(F)c1 [Example 454]

>  <assayedTarget>
Human recombinant DHX9 protein (Homo sapiens (Human), UniProt Q08211)

>  <IC50 [nM]>
5

$$$$

Sure, the documented IC50 for CS(=O)(=O)Nc1cc(Cl)cc(NC(=O)c2cnn([C@H]3CCC[C@H](O)C3)c2)c1 (single isomer, unassigned) [Example 152a] is 138

Sure, the documented IC50 for Cn1cc(C(=O)Nc2cc(Cl)cc(NS(C)(=O)=O)c2)cc1-c1ncc(OC2CN(CC(F)(F)F)C2)cc1F [Example 615] is 52.6

Sure, the documented IC50 for Cc1ccc(C(=O)Nc2cc(Br)cc(NS(C)(=O)=O)c2)cc1-n1cccn1 [Example 10] is 133

###

# assayedTarget: Human recombinant DHX9 protein (Homo sapiens (Human), UniProt Q08211)
# testDescription: DHX9 ATPase assay (ADP-Glo)
# experimentalSetup: read-out: DHX9 Biochemical Inflection Point
The compounds listed here are annotated with their IC50.
Number only, in nM; omit the unit.

>  <molecule>
Cc1cc(F)cnc1-c1cc(C(=O)Nc2cc(Cl)cc(NS(C)(=O)=O)c2)cn1C

>  <IC50 / nM>
74.2

$$$$
>  <molecule>
CS(=O)(=O)Nc1cc(Cl)cc(NC(=O)c2cnn(-c3ncccc3S(C)(=O)=O)c2)c1

>  <IC50 / nM>
84.4

$$$$
>  <molecule>
Cn1cc(C(=O)Nc2cc(Cl)cc(NS(C)(=O)=O)c2)cc1-c1ncc(N2CC(F)C2)cc1F

>  <IC50 / nM>
11.1

$$$$
>  <molecule>
CC(C)c1sc(C(=O)Nc2cc(Cl)cc(NS(C)(=O)=O)c2)cc1-c1ccccn1

>  <IC50 / nM>
45.5

$$$$

# lookup: `CCCS(=O)(=O)Nc1cc(Cl)cc(NC(=O)c2cc(-c3ncccc3C)cs2)c1` on Human recombinant DHX9 protein (Homo sapiens (Human), UniProt Q08211), IC50 = 402

# lookup: `CS(=O)(=O)Nc1cc(Cl)cc(NC(=O)c2cc3ccccn3c2)c1` on Human recombinant DHX9 protein (Homo sapiens (Human), UniProt Q08211), IC50 = 89.4

# lookup: `CCS(=O)(=O)Nc1cc(F)cc(NC(=O)c2cc(-c3ccccc3)cs2)c1` on Human recombinant DHX9 protein (Homo sapiens (Human), UniProt Q08211), IC50 = 255

# lookup: `Cn1cc(C(=O)Nc2cc(Cl)cc(NS(C)(=O)=O)c2)cc1-c1ncc(N2CCN(C(=O)C3CC3)CC2)cc1F` on Human recombinant DHX9 protein (Homo sapiens (Human), UniProt Q08211), IC50 = 5.3

###

# assayedTarget: Human recombinant DHX9 protein (Homo sapiens (Human))
# testDescription: DHX9 ATPase assay (ADP-Glo)
# experimentalSetup: read-out: DHX9 Biochemical Inflection Point
The compounds listed here are annotated with their pIC50.
Units for pIC50: none; it is -log10 of a concentration expressed in mol/L.

Solved entries:
>  <compound>
CS(=O)(=O)Nc1cc(Cl)cc(NC(=O)c2cnn(-c3ncc(N4CC5(COC5)C4)cc3O)c2)c1

>  <pIC50>
7.44

$$$$
>  <compound>
Cc1sc(C(=O)Nc2cc(Cl)cc(NS(C)(=O)=O)c2)cc1-c1ncc(N2CC(C(F)(F)F)C2)cc1F [Example 477]

>  <pIC50>
7.33

$$$$
>  <compound>
CCS(=O)(=O)Nc1cc(Cl)cc(NC(=O)c2cc(-c3ncc(C(F)(F)F)cc3C)c(C)s2)c1

>  <pIC50>
6.82

$$$$

For the next question, use this compound.
# lookup: `CCS(=O)(=O)Nc1cc(Cl)cc(NC(=O)c2cc(-c3ncc(OC(C)C)cn3)c(C)s2)c1` on Human recombinant DHX9 protein (Homo sapiens (Human)), pIC50 = 7.43

###

# assayedTarget: Human recombinant DHX9 protein (Homo sapiens (Human))
# testDescription: DHX9 ATPase assay (ADP-Glo)
# experimentalSetup: read-out: DHX9 Biochemical Inflection Point
The compounds listed here are annotated with their IC50.
Number only, in nM; omit the unit.

Solved entries:
>  <compound>
Cc1sc(C(=O)Nc2cc(Cl)cc(NS(C)(=O)=O)c2)cc1-c1ncc(OC(C)(C)CO)cn1 [Example 678]

>  <assayedTarget>
Human recombinant DHX9 protein (Homo sapiens (Human))

>  <measuredMetric>
IC50

>  <quantitativeReadout>
5.7

$$$$
>  <compound>
Cn1cc(C(=O)Nc2cc(Cl)cc(NS(C)(=O)=O)c2)cc1-c1ncc(N2CC(F)(F)C2)cc1F [Example 599]

>  <assayedTarget>
Human recombinant DHX9 protein (Homo sapiens (Human))

>  <measuredMetric>
IC50

>  <quantitativeReadout>
19.2

$$$$
>  <compound>
CS(=O)(=O)Nc1cc(Cl)cc(NC(=O)c2cnn(-c3ncccc3OCc3cccc(O)c3)c2)c1 [Example 179]

>  <assayedTarget>
Human recombinant DHX9 protein (Homo sapiens (Human))

>  <measuredMetric>
IC50

>  <quantitativeReadout>
27.2

$$$$
>  <compound>
CS(=O)(=O)Nc1cc(Cl)cc(NC(=O)c2cc3ncccc3s2)c1 [Example 289]

>  <assayedTarget>
Human recombinant DHX9 protein (Homo sapiens (Human))

>  <measuredMetric>
IC50

>  <quantitativeReadout>
80.6

$$$$
>  <compound>
Cc1cc(C(=O)Nc2cc(Cl)cc(NS(C)(=O)=O)c2)cn1-c1ccc(Cl)cn1 [Example 389]

>  <assayedTarget>
Human recombinant DHX9 protein (Homo sapiens (Human))

>  <measuredMetric>
IC50

>  <quantitativeReadout>
19.5

$$$$
>  <compound>
CCS(=O)(=O)Nc1cc(Cl)cc(NC(=O)c2cc(C)n(-c3ncc(F)cc3F)c2)c1 [Example 445]

>  <assayedTarget>
Human recombinant DHX9 protein (Homo sapiens (Human))

>  <measuredMetric>
IC50

>  <quantitativeReadout>
80.8

$$$$
>  <compound>
Cc1sc(C(=O)Nc2cc(Cl)cc(NS(C)(=O)=O)c2)cc1-c1ncc(OC2CN(C)C2)cn1 [Example 609]

>  <assayedTarget>
Human recombinant DHX9 protein (Homo sapiens (Human))

>  <measuredMetric>
IC50

>  <quantitativeReadout>
3

$$$$
>  <compound>
Cc1sc(C(=O)Nc2cc(Cl)cc(NS(C)(=O)=O)c2)cc1-c1ncc(C2(O)CN(C)C2)cc1F [Example 681]

>  <assayedTarget>
Human recombinant DHX9 protein (Homo sapiens (Human))

>  <measuredMetric>
IC50

>  <quantitativeReadout>
2.4

$$$$
>  <compound>
CN1CC2(CC(n3cc(C(=O)Nc4cc(Cl)cc(NS(C)(=O)=O)c4)cn3)C2)C1 [Example 311]

>  <assayedTarget>
Human recombinant DHX9 protein (Homo sapiens (Human))

>  <measuredMetric>
IC50

>  <quantitativeReadout>
38.5

$$$$
>  <compound>
Cc1cccnc1-n1cc(C(=O)Nc2cc(Br)cc(NS(C)(=O)=O)c2)cc1C [Example 45]

>  <assayedTarget>
Human recombinant DHX9 protein (Homo sapiens (Human))

>  <measuredMetric>
IC50

>  <quantitativeReadout>
16.4

$$$$

Sure, the documented IC50 for Cn1cc(C(=O)Nc2cc(Cl)cc(NS(C)(=O)=O)c2)cc1N1CCCCC1=O [Example 158] is 34.5

Sure, the documented IC50 for CS(=O)(=O)Nc1cc(Cl)cc(NC(=O)c2cnn(-c3ncccc3OCc3ccc(F)cc3)c2)c1 [Example 69] is 113

Sure, the documented IC50 for Cc1cc(N2CC(F)(F)C2)cnc1-n1cc(C(=O)Nc2cc(Cl)cc(NS(C)(=O)=O)c2)cc1C [Example 419] is 18.6

Sure, the documented IC50 for Cn1cc(C(=O)Nc2cc(Cl)cc(NS(=O)(=O)CCO)c2)cc1-c1ncc(F)cc1F [Example 581] is 99.1
